Measured Target: UniProt O43293
Sequence (O43293 whole entry, looked up): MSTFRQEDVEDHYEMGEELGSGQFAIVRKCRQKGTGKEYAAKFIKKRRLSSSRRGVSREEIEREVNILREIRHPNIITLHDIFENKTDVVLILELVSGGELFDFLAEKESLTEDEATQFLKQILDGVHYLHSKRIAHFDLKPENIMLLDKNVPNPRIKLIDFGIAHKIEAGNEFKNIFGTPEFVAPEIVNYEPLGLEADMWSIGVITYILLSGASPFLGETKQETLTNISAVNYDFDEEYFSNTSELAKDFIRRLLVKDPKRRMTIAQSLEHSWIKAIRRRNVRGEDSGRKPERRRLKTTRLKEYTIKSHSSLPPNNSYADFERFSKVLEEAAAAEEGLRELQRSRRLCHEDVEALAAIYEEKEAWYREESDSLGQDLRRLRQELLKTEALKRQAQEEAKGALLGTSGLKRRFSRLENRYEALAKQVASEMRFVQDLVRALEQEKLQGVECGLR
Protocol Description: KINOMEscan competition binding
Condition Description: compound 10.0 µM
Quantity Kind: kinase still bound, per cent of control
Write the numeric value and append its unit.

Study these solved cases before continuing.
{"Smiles Code": "N=C1NC(=O)/C(=C/c2c[nH]c(=O)c(-c3ccc(N4CCNCC4)nc3)c2)S1", "kinase still bound, per cent of control": "4.7%"}
{"Smiles Code": "COc1cc(N2CCN(CCO)CC2)ccc1Nc1ncc2c(n1)N(C1CCCC1)CCC(=O)N2C", "kinase still bound, per cent of control": "28%"}
{"Smiles Code": "N=C1NC(=O)/C(=C/c2ccc(-c3ccc(S(N)(=O)=O)cc3)o2)S1", "kinase still bound, per cent of control": "24%"}

Entry CS(=O)(=O)Nc1ccc(-c2ncc(/C=C3\SC(=N)NC3=O)s2)cc1 has what kinase still bound, per cent of control?
6.9%

Entry N=C1NC(=O)/C(=C/c2ccc(-c3ccc(C(N)=O)cc3O)o2)S1 has what kinase still bound, per cent of control?
25%

* * *

Measured Target: AKT2 (human)
Protocol Description: KINOMEscan competition binding
Condition Description: compound 10.0 µM
Reported values of kinase still bound, per cent of control for individual entries
Write the numeric value and append its unit.

{"Smiles Code": "COc1cc(N2CCC(O)CC2)ccc1Nc1ncc2c(n1)N1CCc3cccc(c31)C(=O)N2C", "Result Value": "100%"}
{"Smiles Code": "CN1C(=O)c2ccccc2N(C)c2nc(Nc3ccc(N4CCC(O)CC4)cc3)ncc21", "Result Value": "100%"}
{"Smiles Code": "COc1cc(N2CCN(C)CC2)ccc1Nc1ncc2c(n1)Nc1ccccc1NC2=O", "Result Value": "100%"}
{"Smiles Code": "COc1cc(N2CCN(C)CC2)ccc1Nc1ncc2c(n1)N(C)c1ccccc1N(C)C2=O", "Result Value": "100%"}
{"Smiles Code": "O=C1NC(=O)C(=Cc2ccc(-c3ccc(F)cc3O)o2)C(=O)N1", "Result Value": "17%"}

Entry CN1C(=O)c2ccccc2N(C)c2nc(NS(=O)(=O)c3ccc(N)cc3)ncc21 has what kinase still bound, per cent of control?
100%

Entry CN1CCN(c2ccc(C(=O)Nc3ncc4c(n3)N(C)c3ccccc3C(=O)N4C)cc2)CC1 has what kinase still bound, per cent of control?
100%

Entry O=C1NC(=O)/C(=C/c2c[nH]c(=O)c(-c3ccc(N4CCNCC4)nc3)c2)S1 has what kinase still bound, per cent of control?
100%

Entry COc1cc(N2CCN(C)CC2)ccc1Nc1ncc2c(n1)N(C)c1sccc1C(=O)N2C has what kinase still bound, per cent of control?
96%

* * *

Measured Target: SRPK1 (human) (UniProt Q96SB4)
Sequence (Q96SB4 whole entry, looked up): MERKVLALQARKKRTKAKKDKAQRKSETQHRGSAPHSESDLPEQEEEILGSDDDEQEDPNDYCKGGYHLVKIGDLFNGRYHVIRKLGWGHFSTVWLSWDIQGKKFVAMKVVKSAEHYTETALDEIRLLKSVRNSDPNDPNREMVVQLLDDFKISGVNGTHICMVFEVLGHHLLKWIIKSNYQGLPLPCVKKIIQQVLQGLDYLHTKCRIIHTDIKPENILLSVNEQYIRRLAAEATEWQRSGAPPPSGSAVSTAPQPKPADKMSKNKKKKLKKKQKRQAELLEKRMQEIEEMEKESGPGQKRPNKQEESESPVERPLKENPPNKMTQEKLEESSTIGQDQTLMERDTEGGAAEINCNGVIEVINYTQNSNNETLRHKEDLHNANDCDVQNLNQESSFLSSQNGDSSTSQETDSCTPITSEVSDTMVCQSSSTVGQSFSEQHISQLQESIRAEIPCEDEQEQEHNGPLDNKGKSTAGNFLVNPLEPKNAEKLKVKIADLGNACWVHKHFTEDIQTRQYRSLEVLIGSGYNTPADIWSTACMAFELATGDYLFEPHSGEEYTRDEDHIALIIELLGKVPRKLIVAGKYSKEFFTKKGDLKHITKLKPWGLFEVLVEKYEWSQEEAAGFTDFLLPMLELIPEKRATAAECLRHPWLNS
Protocol Description: KINOMEscan competition binding
Condition Description: compound 10.0 µM
Response field label takes MET when kinase still bound, per cent of control is strictly below 20% and NOT MET in all other cases.

Before answering, review these 5 worked examples.
{"Smiles Code": "CN1C(=O)c2ccccc2N(C)c2nc(Nc3ccc(N4CCC(O)CC4)cc3)ncc21", "Class Assignment": "NOT MET"}
{"Smiles Code": "COc1cc(N2CCN(C)CC2)ccc1Nc1ncc2c(n1)N(c1ccccc1)CCC(=O)N2", "Class Assignment": "NOT MET"}
{"Smiles Code": "N=C1NC(=O)/C(=C/c2ccc(-c3cncc4ccccc34)o2)S1", "Class Assignment": "MET"}
{"Smiles Code": "NS(=O)(=O)c1ccc(-c2ccc(/C=C3\\SC(=S)N(CC(=O)O)C3=O)o2)cc1", "Class Assignment": "NOT MET"}
{"Smiles Code": "O=C1NC(=O)/C(=C/c2c[nH]c(=O)c(-c3ccc(C(=O)Nc4ccc(N5CCNCC5)cc4)cc3)c2)S1", "Class Assignment": "NOT MET"}

Please check: kinase still bound, per cent of control for COc1cc(N2CCN(C)CC2)ccc1Nc1ncc2c(n1)Nc1ccccc1NC2=O , strictly under 20% or not?
NOT MET

Please check: kinase still bound, per cent of control for COc1cc(N2CCN(C)CC2)ccc1Nc1ncc2c(n1)N(C)c1ccccc1N(C)C2=O , strictly under 20% or not?
NOT MET

Please check: kinase still bound, per cent of control for COc1cc(N2CCC(O)CC2)ccc1Nc1ncc2c(n1)N1CCc3cccc(c31)C(=O)N2C , strictly under 20% or not?
NOT MET

Please check: kinase still bound, per cent of control for COc1cc(N2CCN(C)CC2)ccc1Nc1ncc2c(n1)N(C)c1sccc1C(=O)N2C , strictly under 20% or not?
NOT MET

Please check: kinase still bound, per cent of control for NS(=O)(=O)c1ccc(-c2ccc(/C=C3\C(=O)Nc4ccccc43)o2)cc1 , strictly under 20% or not?
MET

Please check: kinase still bound, per cent of control for CN1C(=O)c2ccccc2N(C)c2nc(NS(=O)(=O)c3ccc(N)cc3)ncc21 , strictly under 20% or not?
NOT MET

Please check: kinase still bound, per cent of control for N=C1NC(=O)/C(=C/c2ccc(-c3ccc(F)cc3O)o2)S1 , strictly under 20% or not?
NOT MET

Please check: kinase still bound, per cent of control for NS(=O)(=O)c1ccc(-c2ccc(/C=C3\C(=O)Nc4cccc(Br)c43)o2)cc1 , strictly under 20% or not?
MET

* * *

Measured Target: LTK (human)
Protocol Description: KINOMEscan competition binding
Condition Description: compound 10.0 µM
Quantity Kind: kinase still bound, per cent of control
Write the numeric value and append its unit.

Study these solved cases before continuing.
{"Smiles Code": "COc1cc(N2CCC(O)CC2)ccc1Nc1ncc2c(n1)N1CCc3cccc(c31)C(=O)N2C", "Result Value": "100%"}
{"Smiles Code": "COc1cc(N2CCN(C)CC2)ccc1Nc1ncc2c(n1)Nc1ccccc1NC2=O", "Result Value": "72%"}
{"Smiles Code": "O=C1NC(=S)S/C1=C\\c1ccc(-c2cncc3ccccc23)o1", "Result Value": "13%"}
{"Smiles Code": "COc1cc(N2CCN(C)CC2)ccc1Nc1ncc2c(n1)N(C)c1ccccc1N(C)C2=O", "Result Value": "26%"}
{"Smiles Code": "CN1C(=O)c2ccccc2N(C)c2nc(NS(=O)(=O)c3ccc(N)cc3)ncc21", "Result Value": "82%"}
{"Smiles Code": "CN1C(=O)c2ccccc2N(C)c2nc(Nc3ccc(N4CCC(O)CC4)cc3)ncc21", "Result Value": "100%"}
{"Smiles Code": "O=C1NC(=O)/C(=C/c2c[nH]c(=O)c(-c3ccc(N4CCNCC4)nc3)c2)S1", "Result Value": "100%"}
{"Smiles Code": "COc1cc(N2CCN(C)CC2)ccc1Nc1ncc2c(n1)N(C)c1sccc1C(=O)N2C", "Result Value": "83%"}

# next molecule below
Entry CN1CCN(c2ccc(C(=O)Nc3ncc4c(n3)N(C)c3ccccc3C(=O)N4C)cc2)CC1 has what kinase still bound, per cent of control?
86%

* * *

Measured Target: STK32C (human)
Protocol Description: KINOMEscan competition binding
Condition Description: compound 10.0 µM
Quantity Kind: kinase still bound, per cent of control (%)
Expressed in %, but write only the number.

{"Smiles Code": "COc1cc(N2CCN(C)CC2)ccc1Nc1ncc2c(n1)N(C)c1sccc1C(=O)N2C", "Quantity Kind": "kinase still bound, per cent of control", "Result Value": 99}
{"Smiles Code": "CN1C(=O)c2ccccc2N(C)c2nc(NS(=O)(=O)c3ccc(N)cc3)ncc21", "Quantity Kind": "kinase still bound, per cent of control", "Result Value": 100}
{"Smiles Code": "CN1CCN(c2ccc(C(=O)Nc3ncc4c(n3)N(C)c3ccccc3C(=O)N4C)cc2)CC1", "Quantity Kind": "kinase still bound, per cent of control", "Result Value": 100}

Entry COc1cc(N2CCN(C)CC2)ccc1Nc1ncc2c(n1)N(C)c1ccccc1N(C)C2=O has what kinase still bound, per cent of control?
100

Entry COc1cc(N2CCN(C)CC2)ccc1Nc1ncc2c(n1)Nc1ccccc1NC2=O has what kinase still bound, per cent of control?
100

Entry COc1cc(N2CCC(O)CC2)ccc1Nc1ncc2c(n1)N1CCc3cccc(c31)C(=O)N2C has what kinase still bound, per cent of control?
75

Entry CN1C(=O)c2ccccc2N(C)c2nc(Nc3ccc(N4CCC(O)CC4)cc3)ncc21 has what kinase still bound, per cent of control?
100

Entry O=C1NC(=O)/C(=C/c2c[nH]c(=O)c(-c3ccc(N4CCNCC4)nc3)c2)S1 has what kinase still bound, per cent of control?
100

* * *

Measured Target: UniProtKB Q07912
Sequence (Q07912 whole entry, looked up): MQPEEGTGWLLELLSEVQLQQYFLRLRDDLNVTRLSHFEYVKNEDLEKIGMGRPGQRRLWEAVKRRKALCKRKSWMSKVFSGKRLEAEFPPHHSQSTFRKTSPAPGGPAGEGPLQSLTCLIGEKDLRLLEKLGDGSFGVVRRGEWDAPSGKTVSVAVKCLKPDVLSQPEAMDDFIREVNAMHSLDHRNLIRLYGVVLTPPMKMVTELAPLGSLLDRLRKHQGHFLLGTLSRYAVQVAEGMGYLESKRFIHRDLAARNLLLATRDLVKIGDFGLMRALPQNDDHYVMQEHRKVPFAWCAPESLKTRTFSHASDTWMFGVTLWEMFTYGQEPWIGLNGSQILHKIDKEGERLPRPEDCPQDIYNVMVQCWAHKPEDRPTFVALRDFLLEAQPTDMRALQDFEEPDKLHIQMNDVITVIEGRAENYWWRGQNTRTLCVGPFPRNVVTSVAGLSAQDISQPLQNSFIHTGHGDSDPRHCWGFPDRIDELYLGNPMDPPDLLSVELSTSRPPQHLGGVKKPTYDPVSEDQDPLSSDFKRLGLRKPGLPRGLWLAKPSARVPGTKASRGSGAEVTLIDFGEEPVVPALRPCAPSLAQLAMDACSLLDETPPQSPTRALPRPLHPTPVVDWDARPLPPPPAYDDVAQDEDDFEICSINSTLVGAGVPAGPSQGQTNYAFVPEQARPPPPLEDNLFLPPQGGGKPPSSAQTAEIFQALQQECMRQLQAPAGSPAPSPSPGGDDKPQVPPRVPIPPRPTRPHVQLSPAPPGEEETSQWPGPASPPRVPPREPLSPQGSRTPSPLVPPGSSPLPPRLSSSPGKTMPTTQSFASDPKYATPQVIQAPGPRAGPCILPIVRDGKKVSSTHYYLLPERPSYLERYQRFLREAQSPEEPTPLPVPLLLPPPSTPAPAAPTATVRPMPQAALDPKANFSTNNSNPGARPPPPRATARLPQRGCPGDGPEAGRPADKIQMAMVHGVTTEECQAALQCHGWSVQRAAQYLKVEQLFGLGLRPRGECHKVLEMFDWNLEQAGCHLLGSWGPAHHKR
Protocol Description: KINOMEscan competition binding
Condition Description: compound 10.0 µM
Quantity Kind: kinase still bound, per cent of control
Write the numeric value and append its unit.

{"Compound": "CN1C(=O)c2ccccc2N(C)c2nc(Nc3ccc(N4CCC(O)CC4)cn3)ncc21", "Result Value": "31%"}

Entry COc1cc(N2CCN(C)CC2)ccc1Nc1ncc2c(n1)N(C1CCCC1)C(C)CC(=O)N2 (stereo unspecified) has what kinase still bound, per cent of control?
7.4%

Entry COc1cc(N2CCC(N3CCN(C)CC3)CC2)ccc1Nc1ncc2c(n1)N(C1CCCC1)C(C)CC(=O)N2 (stereo unspecified) has what kinase still bound, per cent of control?
11%

Entry COc1cc(N2CCN(C)CC2)ccc1Nc1ncc2c(n1)Nc1ccccc1NC2=O has what kinase still bound, per cent of control?
56%
